Measured values drawn from patent US20170037110A1 for this set.

measured on: T1, HLA-A*02:01 (human)
T1 construct: monomers captured on streptavidin plates; also called MHC class I
protocol details: UV peptide exchange ELISA
I'd appreciate it if you could supply peptide exchange yield values for the items below.

## Task For the binder KLLGKLPEL , give its measured peptide exchange yield value.
## Result 50 to 75%

## Task For the binder ALDDGTPAL , give its measured peptide exchange yield value.
## Result 20 to 50%

## Task For the binder RLYTGMHTV , give its measured peptide exchange yield value.
## Result 50 to 75%

## Task For the binder ALWDLAADKQTL , give its measured peptide exchange yield value.
## Result ≥ 75%

## Task For the binder LLLNELPSV , give its measured peptide exchange yield value.
## Result 50 to 75%

## Task For the binder ALVNVQIPL , give its measured peptide exchange yield value.
## Result 50 to 75%

## Task For the binder ALAELYEDEV , give its measured peptide exchange yield value.
## Result 50 to 75%

## Task For the binder YLADPSNLFVV , give its measured peptide exchange yield value.
## Result 50 to 75%
